ASSAY_TARGET: human KDR protein in HEK-293 cells (Homo sapiens (Human), UniProt P35968)
Sequence (P35968 20-1356): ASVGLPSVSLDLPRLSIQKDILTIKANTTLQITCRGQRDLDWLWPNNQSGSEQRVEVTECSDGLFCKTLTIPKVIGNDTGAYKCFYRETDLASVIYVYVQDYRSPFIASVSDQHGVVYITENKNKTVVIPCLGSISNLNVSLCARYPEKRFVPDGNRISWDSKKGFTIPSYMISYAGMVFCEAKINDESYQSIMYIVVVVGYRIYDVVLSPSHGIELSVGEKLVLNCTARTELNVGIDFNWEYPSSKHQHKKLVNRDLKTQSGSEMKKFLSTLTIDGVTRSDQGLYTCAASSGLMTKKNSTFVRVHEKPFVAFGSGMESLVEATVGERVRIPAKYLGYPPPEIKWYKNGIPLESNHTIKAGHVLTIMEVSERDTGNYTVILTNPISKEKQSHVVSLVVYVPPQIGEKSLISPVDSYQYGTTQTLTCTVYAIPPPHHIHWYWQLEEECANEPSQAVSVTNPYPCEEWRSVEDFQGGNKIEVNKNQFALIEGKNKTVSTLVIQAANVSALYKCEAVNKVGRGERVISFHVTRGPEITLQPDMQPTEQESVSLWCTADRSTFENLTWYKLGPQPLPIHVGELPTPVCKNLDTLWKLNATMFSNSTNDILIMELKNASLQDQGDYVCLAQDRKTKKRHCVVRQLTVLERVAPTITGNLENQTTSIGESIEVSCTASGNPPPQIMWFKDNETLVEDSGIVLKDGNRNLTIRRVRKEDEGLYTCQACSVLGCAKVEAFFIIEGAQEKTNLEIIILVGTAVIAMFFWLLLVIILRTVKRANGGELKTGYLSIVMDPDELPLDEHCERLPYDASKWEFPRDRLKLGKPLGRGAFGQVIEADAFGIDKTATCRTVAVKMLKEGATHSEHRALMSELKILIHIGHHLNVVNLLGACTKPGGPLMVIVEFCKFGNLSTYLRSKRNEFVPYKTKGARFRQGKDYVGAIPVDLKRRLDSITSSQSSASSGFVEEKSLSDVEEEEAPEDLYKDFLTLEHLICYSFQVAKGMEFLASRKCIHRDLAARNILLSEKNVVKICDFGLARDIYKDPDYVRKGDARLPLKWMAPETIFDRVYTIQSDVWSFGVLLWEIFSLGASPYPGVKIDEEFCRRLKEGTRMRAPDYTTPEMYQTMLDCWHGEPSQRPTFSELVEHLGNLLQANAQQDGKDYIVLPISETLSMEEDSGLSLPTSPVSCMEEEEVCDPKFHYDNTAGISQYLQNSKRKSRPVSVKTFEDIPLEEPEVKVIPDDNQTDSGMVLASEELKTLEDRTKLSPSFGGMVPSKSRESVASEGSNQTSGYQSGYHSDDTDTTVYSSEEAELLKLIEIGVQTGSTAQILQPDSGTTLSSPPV
ASSAY_DETAILS: KDR Cell Assay (phospho-KDR in HEK-293 cells expressing inducible KDR)
Type: cell-based
CONDITION: pKDR Cell HEK 10% FBS IC50, HEK-293 cells expressing inducible KDR, VEGF stimulated
Structures can show the parent of a compound that is named as a salt.
RECORDED_ENDPOINT: IC50 (µM)

Below, each entry is followed by its recorded IC50 result.
COMPOUND: Cn1cc(-c2cc(-c3ccc(N4CCN(C(=O)N5CCC(C(F)(F)F)C5)CC4)nc3)c3c(C#N)cnn3c2)cn1 (stereo not drawn)
ASSAY_TARGET: human KDR protein in HEK-293 cells (Homo sapiens (Human), UniProt P35968)
RECORDED_ENDPOINT: IC50
NUMERIC_RESULT: 0.986

COMPOUND: COc1ncc(C(=O)N2C3CC2CN(c2ccc(-c4cc(-c5cnn(C)c5)cn5ncc(C#N)c45)cn2)C3)cc1F
ASSAY_TARGET: human KDR protein in HEK-293 cells (Homo sapiens (Human), UniProt P35968)
RECORDED_ENDPOINT: IC50
NUMERIC_RESULT: 0.0509

COMPOUND: CC(C)CC(=O)N1CCN(c2ccc(-c3cc(-c4cnn(C)c4)cn4ncc(Cl)c34)cn2)CC1
ASSAY_TARGET: human KDR protein in HEK-293 cells (Homo sapiens (Human), UniProt P35968)
RECORDED_ENDPOINT: IC50
NUMERIC_RESULT: 1.96

COMPOUND: Cn1cc(-c2cc(-c3ccc(N4CCC5(CCCN(C(=O)OC(C)(C)C)C5)C4)nc3)c3c(C#N)cnn3c2)cn1 (stereo not drawn)
ASSAY_TARGET: human KDR protein in HEK-293 cells (Homo sapiens (Human), UniProt P35968)
RECORDED_ENDPOINT: IC50
NUMERIC_RESULT: 4.63

COMPOUND: Cn1cc(-c2cc(-c3ccc(N4CCC5(CNC5)C4)nc3)c3c(C#N)cnn3c2)cn1 [Example 549, dihydrochloride]
ASSAY_TARGET: human KDR protein in HEK-293 cells (Homo sapiens (Human), UniProt P35968)
RECORDED_ENDPOINT: IC50
NUMERIC_RESULT: 0.986

I: Cn1cc(-c2cc(-c3ccc(N4CCN(CCc5ccccc5)CC4)nc3)c3c(C#N)cnn3c2)cn1
II: Cc1nccc(CN2CCN(c3ccc(-c4cc(-c5cnn(C)c5)cn5ncc(C#N)c45)cn3)CC2)n1
III: Cn1cc(-c2cc(-c3ccc(N4CCN(Cc5cncc(Cl)c5)CC4)nc3)c3c(C#N)cnn3c2)cn1
Request: Rank by IC50 (largest to smallest). Please respond with the labels ordered as the question requires.
Result: II, III, I

a: CC(C)N1CC(n2cc(-c3cc(-c4ccc(N5CCN(Cc6ccccc6)CC5)nc4)c4c(C#N)cnn4c3)cn2)C1
b: CCc1nn(C)cc1-c1cc(-c2ccc(N3CCN(Cc4ccccc4)CC3)nc2)c2c(C#N)cnn2c1
Request: Between the two listed entries a and b , which has its IC50 at the higher number? Use the label to indicate which entry you chose.
Result: b

###

ASSAY_TARGET: human KDR protein in HEK-293 cells (Homo sapiens (Human), UniProt P35968)
ASSAY_DETAILS: KDR Cell Assay (phospho-KDR in HEK-293 cells expressing inducible KDR)
Format: cell-based
CONDITION: pKDR Cell HEK 10% FBS IC50, HEK-293 cells expressing inducible KDR, VEGF stimulated
pIC50: −log10 of the molar value.
RECORDED_ENDPOINT: pIC50

Below, each entry is followed by its recorded pIC50 result.
COMPOUND: Cn1cc(-c2cc(-c3ccc(N4CCC5(CN(C(=O)OC(C)(C)C)C5)C4)nc3)c3c(C#N)cnn3c2)cn1 [Example 521]
pIC50: 6.17

COMPOUND: CC(C)NS(=O)(=O)C1CCN(c2ccc(-c3cc(-c4cnn(C)c4)cn4ncc(C#N)c34)cn2)CC1 [Example 569]
pIC50: 8.66

P: C[C@@H](CO)Cn1cc(-c2cc(-c3ccc(N4CCN(Cc5ccccc5)CC4)nc3)c3c(C#N)cnn3c2)cn1 [Example 592]
Q: Cn1cc(-c2cc(-c3ccc(N4CCC(Oc5ccc(Cl)cc5)CC4)nc3)c3c(C#N)cnn3c2)cn1 [Example 509]
R: Cn1cc(-c2cc(-c3ccc(N4CC5(CCN(Cc6ccccc6)CC5)C4)nc3)c3c(C#N)cnn3c2)cn1 [Example 485]
S: Cn1cc(-c2cc(-c3ccc(C4CN(Cc5ccccc5)C4)nc3)c3c(C#N)cnn3c2)cn1 [Example 580]
Request: Rank by pIC50 (largest to smallest). Please respond with the labels ordered as the question requires.
Result: Q, P, S, R

1: Cn1cc(-c2cc(-c3ccc(N4C[C@@H]5C[C@H]4CN5Cc4ccccc4)nc3)c3c(C#N)cnn3c2)cn1 [Example 483]
2: Cn1cc(-c2cc(-c3ccc(N4CCN(Cc5ccc(Cl)cc5)CC4)nc3)c3c(C#N)cnn3c2)cn1 [Example 425]
3: COC(CN1CCN(c2ccc(-c3cc(-c4cnn(C)c4)cn4ncc(C#N)c34)cn2)CC1)C(C)C (stereo not shown) [Example 413]
4: CO[C@H](C)CN1CCN(c2ccc(-c3cc(-c4cnn(C)c4)cn4ncc(C#N)c34)cn2)CC1 [Example 412]
Request: Rank by pIC50 (largest to smallest). Please respond with the labels ordered as the question requires.
Result: 1, 3, 2, 4
(1: 7.11, 3: 6.26, 2: 6.04, 4: 5.67)
